# credit: patent US20240043504A1

For each record, write down the corresponding Binding signal (MFI).
- SYSTEM UNDER TEST: SARS-CoV-2 Spike Protein (RBD)(R319-F541).mmH (SARS-CoV-2)
- ASSAY NOTES: Luminex bead binding, supernatant
- EXPERIMENTAL CONDITIONS: remark: other sources report otherwise
Answers are plain numbers, in MFI.

Reference set (2 entries):
mAb10998 (antibody, V domains shown) VH: EVQLVESGGGLVHPGGSLRLSCAASGLTVSSNYMSWVRQAPGKGLEWVSVIYSGGSTYYADSVKGRFTISRHNSKNTLFLQMNSLRAEDTAVYYCARDRPITGTTLDVWGQGTTVTVSS VL: DIQMTQSPSSLFASVGDRVTITCRASQSISSYLNWYQQKPGKAPKLLIYAASSLQSGVPSRFSGSGSGTDFTLTISSLQPEDFAFYYCQQTYSTPPITFGQGTRLEIK : 1850
mAb11004 (antibody, V domains shown) VH: QVQLVESGGGVVQPGRSLRLSCVASGFTFSIYGMDWVRQAPGKGLEWVAVISYDGSNKYYADSVKGRFTISRDNSKNTLYLQMNSLRPEDTAVYYCAKDREAAADAFDIWGQGTMVTVSS VL: DIQMTQSPSSVSASVGDRVTITCRASQGISSWLAWYQQKPGKAPKLLIYAASSLHSGVPSRFSGSGSGTDFTLTISSLQPEDFATYYCQQANSFRLTFGGGTKVEIK : 3350

Please supply Binding signal (MFI) for each of the following items, keeping them in order.
1. mAb11008 (antibody, V domains shown) VH: EVQLVESGGGLVQPGGSLRLSCAASGFTVSSNYMTWVRQAPGKGLEWVSVIYSGGSTFYADSVKGRFTISRHNSENTLYLQMNSLRAEDTAVYYCARDLAAAGTDYWGQGALVTVSS VL: DIQLTQSPSFLSASVGDRVTITCWASQGISSYLAWYQQKPGKAPKLLIYAASTLQSGVPSRFSGSGSGTEFTLTISSLQPDDFATYYCQHLNSYLYTFGQGTKLEIK
2. mAb11006 (antibody, V domains shown) VH: EVQLVESGGGLVQPGGSLRLSCAASGFIVSRNYMSWVRQAPGKGLEWVSVIYSGGSTFYADSVKGRFTISRHNSKNTLYLQMNSLKAEDTAVYYCARELRGYFDYWGQGTLVTVSS VL: DIQLTQSPSFLSASVGDRVTITCWASQGISSYLAWYQQKPGKAPKLLIYAASTLQSGVPSRFSGSGSGTEFTLTISSLQPEDFATYYCQLLNSYPYTFGQGTKLEIK

## Result
4050
5130
